# assay.overview: In vivo mouse PK
# experimental.setup: C57BL/6N mice, IV 1 mg/kg
observable: clearance (mL/min/kg)
Write the answer as a number in mL/min/kg, unit excluded.

For this compound ( N[C@@H]1CCN(C(=O)N2CC[C@@](O)(Cn3cnc(-c4ccccc4)cc3=O)C3(CCCC3)C2)[C@H](c2ccccc2)C1 [F 11 9 N W032, reference compound] ), measured clearance is 3

* * *

Each item that follows carries a reported pIC50.
# test.target: UniProt:O94966
# assay.overview: Cellular target engagement using HTRF assay (USP19-Flag transfected cells)
# experimental.setup: HEK293T cells; read-out: HTRF TE IC50
Worth noting: pIC50 values are minus log10 of concentrations stated in mol/L.

>  <input.smiles>
O=C(N1CC[C@@H](Cn2cnc(-c3ccccc3)cc2=O)C2(CCCC2)C1)N1CCNC[C@H]1c1ccccc1

>  <measured.value>
6.00

$$$$

With those in mind, consider the next molecule.
For this molecule ( `O=C(N1CC[C@@H](Cn2ccc(-c3ccccc3)cc2=O)C2(CCCC2)C1)N1CCNC[C@H]1c1ccccc1` ), measured pIC50 is 5.52

* * *

# assay.overview: Thermodynamic solubility assay
# Type: physicochemical
# experimental.setup: aqueous buffer, thermodynamic from solid, PBS buffer pH 7.4, read-out: TSol
observable: solubility thermodynamic at 64 h
Quick note: number first, unit second.

For this compound ( `O=C(N1CC[C@@H](Cn2ccc(-c3ccccc3)cc2=O)C2(CCCC2)C1)N1CCNC[C@H]1c1ccccc1` ), measured solubility thermodynamic at 64 h is 1 µM

For this compound ( N[C@@H]1CCN(C(=O)N2CC[C@@](O)(Cn3cnc(-c4ccccc4)cc3=O)C3(CCCC3)C2)[C@H](c2ccccc2)C1 [F 11 9 N W032, reference compound] ), measured solubility thermodynamic at 64 h is 1 µM

* * *

# assay.overview: Caco-2 permeability assay
# Format: in vitro ADME
# experimental.setup: human, apical to basolateral (A:B), read-out: caco-2 Papp AB
Each item that follows carries a reported Papp A→B at 2 h.
Write the answer as a number in ×10⁻⁶ cm/s, unit excluded.

>  <input.smiles>
O=C(N1CC[C@@H](Cn2cnc(-c3ccccc3)cc2=O)C2(CCCC2)C1)N1CCNC[C@H]1c1ccccc1

>  <Papp A→B at 2 h (×10⁻⁶ cm/s)>
1

$$$$

For this molecule ( `O=C(N1CC[C@@H](Cn2ccc(-c3ccccc3)cc2=O)C2(CCCC2)C1)N1CCNC[C@H]1c1ccccc1` ), measured Papp A→B at 2 h is 1

* * *

# test.target: Full-length USP19 (Homo sapiens)
# Sequence (O94966 1-1318): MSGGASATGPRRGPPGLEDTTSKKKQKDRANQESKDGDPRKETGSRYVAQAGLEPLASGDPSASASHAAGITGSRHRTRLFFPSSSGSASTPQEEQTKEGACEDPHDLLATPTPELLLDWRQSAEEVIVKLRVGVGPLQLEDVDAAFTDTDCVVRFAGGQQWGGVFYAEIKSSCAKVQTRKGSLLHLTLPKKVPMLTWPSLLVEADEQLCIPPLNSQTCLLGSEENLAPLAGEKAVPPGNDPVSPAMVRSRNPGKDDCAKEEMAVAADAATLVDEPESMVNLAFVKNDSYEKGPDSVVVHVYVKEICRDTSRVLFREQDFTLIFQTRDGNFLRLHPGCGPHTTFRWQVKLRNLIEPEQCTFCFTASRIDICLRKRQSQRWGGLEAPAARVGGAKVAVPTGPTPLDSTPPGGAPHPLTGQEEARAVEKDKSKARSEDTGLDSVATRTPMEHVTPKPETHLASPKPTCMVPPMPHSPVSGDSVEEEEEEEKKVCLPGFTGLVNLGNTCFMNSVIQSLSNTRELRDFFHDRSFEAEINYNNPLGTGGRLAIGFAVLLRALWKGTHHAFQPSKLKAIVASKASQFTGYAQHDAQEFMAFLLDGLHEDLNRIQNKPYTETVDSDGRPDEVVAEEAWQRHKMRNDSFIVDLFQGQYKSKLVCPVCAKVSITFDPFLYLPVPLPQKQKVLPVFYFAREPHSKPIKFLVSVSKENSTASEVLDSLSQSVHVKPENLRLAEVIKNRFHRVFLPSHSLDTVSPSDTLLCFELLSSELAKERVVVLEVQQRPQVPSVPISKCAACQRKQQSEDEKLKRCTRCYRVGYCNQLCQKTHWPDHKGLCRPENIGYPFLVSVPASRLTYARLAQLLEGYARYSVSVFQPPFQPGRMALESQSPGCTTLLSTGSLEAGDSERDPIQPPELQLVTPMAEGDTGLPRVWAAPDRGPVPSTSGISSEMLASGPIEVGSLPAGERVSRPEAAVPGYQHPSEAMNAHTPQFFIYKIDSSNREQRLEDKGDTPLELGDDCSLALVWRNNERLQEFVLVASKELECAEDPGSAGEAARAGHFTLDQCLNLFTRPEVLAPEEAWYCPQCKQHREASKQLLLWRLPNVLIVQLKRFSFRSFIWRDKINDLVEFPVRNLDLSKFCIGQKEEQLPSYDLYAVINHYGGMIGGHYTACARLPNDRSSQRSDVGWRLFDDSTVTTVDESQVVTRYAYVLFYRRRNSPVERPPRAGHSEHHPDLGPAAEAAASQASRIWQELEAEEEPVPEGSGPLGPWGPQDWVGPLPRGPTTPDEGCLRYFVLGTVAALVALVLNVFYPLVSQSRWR
observable: IC50

>  <compound>
O=C(N[C@@H]1CCN(C(=O)N2CC[C@@H](Cn3ccc(-c4ccccc4)cc3=O)C3(CCCC3)C2)[C@H](c2ccccc2)C1)C1CC1

>  <measured.value>
0.01 to 0.1 µM

$$$$
>  <compound>
CN[C@@H]1CCN(C(=O)N2CC[C@@H](Cn3cnc(-c4ccccc4F)cc3=O)C3(CCCC3)C2)[C@H](c2ccc(F)cc2F)C1

>  <measured.value>
< 0.01 µM

$$$$
>  <compound>
CN[C@@H]1CCN(C(=O)N2CC[C@@H](Cn3cnc(-c4ccccc4C)cc3=O)C3(CCCC3)C2)[C@H](c2ccccc2)C1

>  <measured.value>
< 0.01 µM

$$$$
>  <compound>
CN[C@@H]1CCN(C(=O)N2CC[C@@H](Cn3ccc(-c4ccccc4OC)cc3=O)C3(CCCC3)C2)[C@H](c2ccc(F)cc2)C1

>  <measured.value>
< 0.01 µM

$$$$

For this compound ( O=C(N1CC[C@@H](Cn2cnc(-c3ccccc3)cc2=O)C2(CCCC2)C1)N1CCNC[C@H]1c1ccccc1 (single isomer, unassigned) ), measured IC50 is < 0.01 µM

For this compound ( `CN(C)[C@@H]1CCN(C(=O)N2CC[C@@H](Cn3ccc(-c4ccccc4)cc3=O)C3(CCCC3)C2)[C@H](c2ccccc2)C1` ), measured IC50 is 0.01 to 0.1 µM

For this compound ( COC[C@H](CC(F)(F)F)C(=O)N1CCC(Cn2cnc(-c3ccccc3)cc2=O)C2(CCCC2)C1 (stereo partly shown) ), measured IC50 is 1 to 20 µM

For this compound ( `CC(C)N[C@@H]1CCN(C(=O)N2CC[C@@H](Cn3cnc4ccc(F)cc4c3=O)C3(CCCC3)C2)[C@H](c2cc(F)ccc2F)C1` ), measured IC50 is < 0.01 µM

For this compound ( `CCN[C@@H]1CCN(C(=O)N2CC[C@@H](Cn3cnc(-c4ccccc4)cc3=O)C3(CCCC3)C2)[C@H](c2ccccc2)C1` ), measured IC50 is < 0.01 µM

For this compound ( `N[C@@H]1CCN(C(=O)N2CC[C@@H](Cn3ccc(-c4ccccc4)cc3=O)C3(CCCC3)C2)[C@H](c2cccc(F)c2)C1` ), measured IC50 is < 0.01 µM

For this compound ( Cc1ccn(CC2CCN(C(=O)N3CC[C@@H](N)C[C@H]3c3ccccc3)CC23CCCC3)c(=O)c1 (stereo partly shown) ), measured IC50 is 0.01 to 0.1 µM

For this compound ( `CCN[C@@H]1CCN(C(=O)N2CC[C@@H](Cn3cnc(-c4ccccc4)cc3=O)C3(CCCC3)C2)[C@H](c2cc(F)ccc2F)C1` ), measured IC50 is < 0.01 µM

For this compound ( `CN[C@@H]1CCN(C(=O)N2CC[C@@H](Cn3cnc(-c4ccccc4F)cc3=O)C3(CCCC3)C2)[C@H](c2cc(F)cc(F)c2)C1` ), measured IC50 is < 0.01 µM

For this compound ( `CN[C@@H]1CCN(C(=O)N2CC[C@@H](Cn3cnc(-c4ccccc4OC)cc3=O)C3(CCCC3)C2)[C@H](c2ccccc2)C1` ), measured IC50 is < 0.01 µM

Where do these numbers come from? They come from patent US20240327382A1.
